molecular target: T1, K280-ac protein fragment (human); experiment: ELISA on K280-ac coated at 250 ng/well, HRP anti-human IgG
T1 construct: also called mAC
T1 peptide: VQIINK(Ac)KLDLSN
Ends that are not written are not given here.

binder: v11 (antibody, V domains shown, also called Y01h01v11; ADEL-Y01h v11 antibody) VH: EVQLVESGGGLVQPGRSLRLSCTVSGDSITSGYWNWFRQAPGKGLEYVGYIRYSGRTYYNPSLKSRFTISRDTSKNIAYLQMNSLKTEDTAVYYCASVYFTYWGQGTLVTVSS VL: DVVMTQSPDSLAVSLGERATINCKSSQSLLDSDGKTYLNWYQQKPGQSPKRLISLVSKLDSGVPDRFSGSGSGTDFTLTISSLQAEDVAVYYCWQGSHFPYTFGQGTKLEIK
Absorbance at 450nm at 0.03ug/well: 0.0225
--
binder: ADEL-Y01h v05 antibody (antibody, V domains shown, Humanized antibody; It was detected with anti-human IgG; also called Y01h01v05) VH: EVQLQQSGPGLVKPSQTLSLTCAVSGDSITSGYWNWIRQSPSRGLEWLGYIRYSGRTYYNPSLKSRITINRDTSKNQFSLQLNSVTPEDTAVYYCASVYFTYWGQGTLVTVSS VL: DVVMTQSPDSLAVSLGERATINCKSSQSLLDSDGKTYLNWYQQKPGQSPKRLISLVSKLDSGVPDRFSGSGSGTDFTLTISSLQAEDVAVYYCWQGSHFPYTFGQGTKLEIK
Absorbance at 450nm at 0.03ug/well: 0.224
--
binder: ADEL-Y01h v09 antibody (antibody, V domains shown, Humanized antibody; It was detected with anti-human IgG; also called Y01h01v09) VH: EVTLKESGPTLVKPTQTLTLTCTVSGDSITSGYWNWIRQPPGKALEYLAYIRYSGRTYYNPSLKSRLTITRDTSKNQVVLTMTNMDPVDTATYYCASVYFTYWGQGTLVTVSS VL: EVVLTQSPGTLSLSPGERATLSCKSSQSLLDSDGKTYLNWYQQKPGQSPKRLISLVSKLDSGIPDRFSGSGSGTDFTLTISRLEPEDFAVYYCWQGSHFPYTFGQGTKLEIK
Absorbance at 450nm at 0.03ug/well: 0.542
